- Target entity: delta opioid receptor (Rattus norvegicus, UniProt P33533)
- Construct: the forebrains were homogenized in Tris buffer in a Teflon®-glass homogenizer; from tissue; host or cells: forebrain of male Wistar rats, particulate membrane preparation
- Sequence (P33533 whole entry): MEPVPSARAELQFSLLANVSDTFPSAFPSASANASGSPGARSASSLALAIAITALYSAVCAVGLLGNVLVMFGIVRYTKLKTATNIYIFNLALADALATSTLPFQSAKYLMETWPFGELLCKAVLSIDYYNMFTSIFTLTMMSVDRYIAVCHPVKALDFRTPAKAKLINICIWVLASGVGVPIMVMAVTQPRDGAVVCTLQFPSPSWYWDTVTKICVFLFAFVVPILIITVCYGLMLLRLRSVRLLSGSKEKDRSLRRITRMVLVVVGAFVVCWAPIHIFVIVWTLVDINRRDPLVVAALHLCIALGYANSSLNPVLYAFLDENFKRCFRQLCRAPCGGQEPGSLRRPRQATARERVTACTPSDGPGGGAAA
- Experiment summary: Rat brain delta opioid receptor binding assay
Experimental readout: pKi
Give bare numbers, as −log10 of the molar value.

Observe how each entry below is paired with its result.
• COc1ccc(Oc2ncc(NC[C@@H]3CCCN3)c(Oc3ccc(OC)cc3)n2)cc1 = 8.23
• CCN(CC)C(=O)c1ccc(Oc2ncc(NC[C@@H]3CCCN3)c(Oc3ccc(OC)cc3)n2)cc1 = 7.74

## Task For the compound COc1ccc(Oc2ncc(NC3CCCNC3)c(Oc3ccc(OC)cc3)n2)cc1 (stereo not drawn) , give its measured pKi value.
## Result 8.12

----------
- Target entity: mu opioid receptor (Rattus norvegicus)
- Construct: the forebrains were homogenized in Tris buffer in a Teflon®-glass homogenizer; from tissue; host or cells: forebrain of male Wistar rats, particulate membrane preparation
- Sequence (P33535 whole entry): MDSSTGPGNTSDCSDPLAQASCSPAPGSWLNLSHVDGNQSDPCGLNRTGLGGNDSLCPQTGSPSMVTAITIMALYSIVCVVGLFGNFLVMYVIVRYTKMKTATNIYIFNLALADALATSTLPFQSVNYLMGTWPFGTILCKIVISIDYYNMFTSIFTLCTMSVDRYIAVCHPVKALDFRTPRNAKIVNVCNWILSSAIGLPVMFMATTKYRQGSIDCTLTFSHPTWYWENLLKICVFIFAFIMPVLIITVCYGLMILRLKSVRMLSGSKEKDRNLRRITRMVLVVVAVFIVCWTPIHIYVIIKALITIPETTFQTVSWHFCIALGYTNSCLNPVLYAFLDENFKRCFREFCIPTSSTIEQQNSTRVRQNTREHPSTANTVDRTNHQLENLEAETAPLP
- Experiment summary: Rat brain mu opioid receptor binding assay
- Measurement parameters: rat forebrain membranes, ~0.8 nM [3H]DAMGO; read-out: μ-binding Ki
Experimental readout: Ki (µM)
Give bare numbers, in µM.

Reference set (3 entries):
- COc1ccc(Oc2ncc(NCC3CCNC3)c(Oc3ccc(OC)cc3)n2)cc1 (racemic) [Cpd 22]: 9.28
- COc1ccc(Oc2ncc(NC3CCCC(N)C3)c(Oc3ccc(OC)cc3)n2)cc1 (stereo not drawn) [Cpd 3]: 1.67
- COc1ccc(Oc2ncc(NCC3CCCN3)c(Oc3ccc(OC)cc3)n2)cc1 (stereo not drawn) [Cpd 7]: 2.85

Proceeding to the next compound to report its Ki.
## Task Return Ki for the following compound: COc1ccc(Oc2ncc(CNC[C@@H]3CCCN3C)c(Oc3ccc(OC)cc3)n2)cc1 [Cpd 8]
## Result 7.16

----------
- Target entity: delta opioid receptor (Mus musculus)
- Construct: NG108-15 cell membranes were purchased from Applied Cell Sciences (Rockville, Md.); host or cells: NG108-15 cell membranes (purchased)
- Sequence (P32300 whole entry): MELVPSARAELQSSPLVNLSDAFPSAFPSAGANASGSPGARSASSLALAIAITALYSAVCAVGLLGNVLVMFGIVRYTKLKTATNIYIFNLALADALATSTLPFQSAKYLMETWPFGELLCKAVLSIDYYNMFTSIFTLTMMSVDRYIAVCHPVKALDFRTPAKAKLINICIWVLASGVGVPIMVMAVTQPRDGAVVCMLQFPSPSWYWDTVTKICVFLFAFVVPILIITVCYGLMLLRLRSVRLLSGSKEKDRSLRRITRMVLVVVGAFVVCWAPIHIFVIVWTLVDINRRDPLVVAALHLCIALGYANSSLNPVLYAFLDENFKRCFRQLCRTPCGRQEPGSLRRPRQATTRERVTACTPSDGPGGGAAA
- Experiment summary: [35S]GTPγS binding assay in NG108-15 cell membranes (delta opioid functional assay)
- Assay type: biochemical
Assign labels as follows, please: Fulfilled for GTPγS δ-opioid receptor Rel Efficacy below 1; Not fulfilled for GTPγS δ-opioid receptor Rel Efficacy equal to or exceeding 1.

These recorded examples may help you get a feel for the data.
• COc1ccc(Oc2nc(Oc3cccc(C#N)c3)ncc2NC[C@@H]2CCCN2)cc1 [Cpd 53] = Not fulfilled
• COc1ccc(Oc2nc(Oc3cccnc3)ncc2NC[C@@H]2CCCN2)cc1 [Cpd 45] = Not fulfilled
• COc1ccc(Oc2nc(Oc3cccc(Cl)c3)ncc2NC[C@@H]2CCCN2)cc1 [Cpd 51] = Not fulfilled

## Task Report whether reported GTPγS δ-opioid receptor Rel Efficacy is lower than 1 (strictly) for COc1ccc(Oc2nc(Oc3cccc(OC)c3)ncc2NC[C@@H]2CCCN2)cc1 [Cpd 52]
## Result Fulfilled

## Task Just wondering, is GTPγS δ-opioid receptor Rel Efficacy of COc1ccc(Oc2ncc(NC3CCCC(N)C3)c(Oc3ccc(OC)cc3)n2)cc1 (stereo not drawn) [Cpd 3] below 1?
## Result Not fulfilled

## Task Determine whether this compound shows GTPγS δ-opioid receptor Rel Efficacy lower than 1 (ties excluded): COc1ccc(Oc2nc(Sc3cccc(F)c3)ncc2NC[C@@H]2CCCN2)cc1 [Cpd 47]
## Result Not fulfilled

----------
- Target entity: mu opioid receptor (Rattus norvegicus)
- Construct: the forebrains were homogenized in Tris buffer in a Teflon®-glass homogenizer; from tissue; host or cells: forebrain of male Wistar rats, particulate membrane preparation
- Experiment summary: Rat brain mu opioid receptor binding assay
- Measurement parameters: rat forebrain membranes, ~0.8 nM [3H]DAMGO; read-out: μ-binding Ki
Experimental readout: Ki

Please go through the list and note Ki for each compound.
1. COc1ccc(Oc2ncc(NC[C@@H](N)CO)c(Oc3ccc(OC)cc3)n2)cc1
2. COc1ccc(Oc2ncc(NCc3ccc(-n4ccnc4)cc3)c(Oc3ccc(OC)cc3)n2)cc1
3. COc1ccc(Oc2ncc(NC3CCN(Cc4ccccc4)C3)c(Oc3ccc(OC)cc3)n2)cc1 (racemic)

## Result
> 10 µM
> 10 µM
3.57 µM

Batch lookup, Ki per entry.
1. COc1ccc(Oc2ncc(NCC3CCCN3)c(Oc3ccc(OC)cc3)n2)cc1 (racemic) [Cpd 6]
2. COc1ccc(Oc2ncc(NC(C)c3ccncc3)c(Oc3ccc(OC)cc3)n2)cc1 (racemic)
3. COc1ccc(Oc2ncc(NC3CCNCC3)c(Oc3ccc(OC)cc3)n2)cc1
4. COc1ccc(Oc2ncc(NCc3ccncc3)c(Oc3ccc(OC)cc3)n2)cc1

## Result
1: 1.84 µM; 2: > 10 µM; 3: 15.2 µM; 4: > 10 µM

Please look at the items below and tell me Ki for each one, in order.
1. COc1ccc(Oc2ncc(NCc3ncc[nH]3)c(Oc3ccc(OC)cc3)n2)cc1
2. COc1ccc(Oc2ncc(NC[C@H](N)CO)c(Oc3ccc(OC)cc3)n2)cc1
3. COc1ccc(Oc2ncc(NC3CCC(N)CC3)c(Oc3ccc(OC)cc3)n2)cc1 (centres unmarked)
4. CCN(CC)CCC(C)Nc1cnc(Oc2ccc(OC)cc2)nc1Oc1ccc(OC)cc1 (racemic)

## Result
1. > 10 µM
2. > 10 µM
3. 3.86 µM
4. > 10 µM

Please state Ki for every compound in the list that follows.
1. COc1ccc(Oc2nc([S+]([O-])c3ccc(OC)cc3)ncc2NC[C@@H]2CCCN2)cc1 (some centres unmarked)
2. COc1ccc(Oc2ncc(NCCC3CCNCC3)c(Oc3ccc(OC)cc3)n2)cc1
3. COc1ccc(Nc2ncc(NC[C@@H]3CCCN3)c(Oc3ccc(OC)cc3)n2)cc1
4. COc1ccc(Oc2ncc(NC3CCN(C(C)=O)CC3)c(Oc3ccc(OC)cc3)n2)cc1
5. COc1ccc(Oc2ncc(NC3CC4CCC(C3)N4)c(Oc3ccc(OC)cc3)n2)cc1 (centres unmarked)
6. COc1ccc(Oc2ncc(NCC3CCCCN3)c(Oc3ccc(OC)cc3)n2)cc1 (racemic)

## Result
["> 10 µM", "> 10 µM", "> 10 µM", "> 10 µM", "2.15 µM", "2.51 µM"]

----------
- Target entity: mu opioid receptor (Rattus norvegicus)
- Construct: the forebrains were homogenized in Tris buffer in a Teflon®-glass homogenizer; from tissue; host or cells: forebrain of male Wistar rats, particulate membrane preparation
- Experiment summary: Rat brain mu opioid receptor binding assay
Provide the reported pKi of each item.
Give bare numbers, as −log10 of the molar value.

A selection of reference data follows.
• COc1ccc(Oc2ncc(NC[C@@H]3CCCN3)c(Oc3ccc(OC)cc3)n2)cc1 = 5.41
• COc1ccc(Oc2ncc(NC3CCCNC3)c(Oc3ccc(OC)cc3)n2)cc1 (stereo not drawn) = 5.61

Would you kindly look at the next entry?
## Task Using the record for CCN(CC)C(=O)c1ccc(Oc2ncc(NC[C@@H]3CCCN3)c(Oc3ccc(OC)cc3)n2)cc1 , state its measured pKi.
## Result 7.74

----------
- Target entity: delta opioid receptor (Rattus norvegicus)
- Construct: the forebrains were homogenized in Tris buffer in a Teflon®-glass homogenizer; from tissue; host or cells: forebrain of male Wistar rats, particulate membrane preparation
- Experiment summary: Rat brain delta opioid receptor binding assay
- Measurement parameters: rat forebrain membranes, 0.25 nM [3H]naltrindole; read-out: δ-binding (Naltrindole ligand) Ki
Experimental readout: log10 Ki (log10 of the value in nM)
Each number you see is log10 of Ki, and the unit inside the log is nM.

* COc1ccc(Oc2ncc(NCc3ccncc3)c(Oc3ccc(OC)cc3)n2)cc1 [Cpd 39] | 3.55
* COc1ccc(Oc2ncc(NC[C@@H](N)CO)c(Oc3ccc(OC)cc3)n2)cc1 [Cpd 10] | 2.11
* COc1ccc(Oc2ncc(NCc3ccc(-n4ccnc4)cc3)c(Oc3ccc(OC)cc3)n2)cc1 [Cpd 37] | 3.43
* CCN(CC)CCC(C)Nc1cnc(Oc2ccc(OC)cc2)nc1Oc1ccc(OC)cc1 (racemic) [Cpd 38] | 3.49
* COc1ccc(Oc2ncc(NC3CCNCC3)c(Oc3ccc(OC)cc3)n2)cc1 [Cpd 12] | 2.24

# map each molecule to its log10 Ki
1. COc1ccc(Oc2ncc(NC3CCNC3)c(Oc3ccc(OC)cc3)n2)cc1 (racemic) [Cpd 36]
2. COc1ccc(Oc2ncc(NC3CCN(C(C)=O)CC3)c(Oc3ccc(OC)cc3)n2)cc1 [Cpd 41]
3. COc1ccc(Oc2ncc(NC3CCN(Cc4ccccc4)C3)c(Oc3ccc(OC)cc3)n2)cc1 (racemic) [Cpd 27]
4. COc1ccc(Oc2ncc(NCC3CCCN3)c(Oc3ccc(OC)cc3)n2)cc1 (racemic) [Cpd 6]
5. COc1ccc(Oc2ncc(NC(C)c3ccncc3)c(Oc3ccc(OC)cc3)n2)cc1 (racemic) [Cpd 40]
6. COc1ccc(Oc2ncc(NC[C@@H]3CCCN3C)c(Oc3ccc(OC)cc3)n2)cc1 [Cpd 9]

## Result
1. 3.33
2. 3.73
3. 3.01
4. 1.64
5. 3.64
6. 2.06

## Task State its log10 Ki for this molecule: COc1ccc(Oc2ncc(NCC3CCCNC3)c(Oc3ccc(OC)cc3)n2)cc1 (racemic) [Cpd 15]
## Result 2.47
